Entries and their DC50 values follow.
Target: CDK12 (nuclear staining in CAL-120 cells) (Homo sapiens)
Construct: endogenous in cells; host or cells: CAL-120 human breast cancer cells (DSMZ ACC 459)
Test: CDK12 nuclear protein level: immunofluorescence/high content analysis (CAL-120)
Type: cell-based
Settings: CAL-120 cells, 24 h, immunofluorescence; 50% reduction of nuclear CDK12 staining intensity; median; read-out: CDK12 degradation IF, DC50- [mol/l] (median)
API: value field is a number in µM; no unit string.

Below are worked cases with known answers.
Compound	Measured number
Brc1cnn2c(NCc3nc4ccccc4[nH]3)nc(N3C[C@H]4C[C@@H]3CN4)nc12	0.00333
CN1CCN(c2nc(NCc3nc4ccccc4[nH]3)n3ncc(Br)c3n2)C(CO)C1 (centres unmarked) [Example 155]	0.0472
Cc1cnn2c(NCc3nc4ccccc4[nH]3)nc(N(C)CC(C)(C)O)nc12	0.0281
COc1ccc2[nH]c(CNc3nc(N4C[C@@H](C)O[C@@H](C)C4)nc4c(Br)cnn34)nc2c1	0.000768

Prompt line: Return reported DC50; argument: `Cc1ccc2[nH]c(CNc3nc(N4CCNCC4)nc4c(Br)cnn34)nc2c1`
Response line: 0.000619

Prompt line: Now the same for `CN1CCCN(c2nc(NCc3nc4ccccc4[nH]3)n3ncc(Br)c3n2)CC1`
Response line: 0.0192

Prompt line: Further, for Brc1cnn2c(NCc3nc4ccccc4[nH]3)nc(N3C[C@H]4CC[C@@H]3CN4)nc12 (single isomer, unassigned) [Example 335] ?
Response line: 0.00834

Prompt line: Here is the next compound: `CN(CC(C)(C)O)c1nc(NCc2nc3cc(OC(F)(F)F)ccc3[nH]2)n2ncc(Br)c2n1`
Response line: 0.0291

----------
Molecular target: CDK12 (nuclear staining in CAL-120 cells) (Homo sapiens, UniProt Q9NYV4)
Construct: endogenous in cells; host or cells: CAL-120 human breast cancer cells (DSMZ ACC 459)
Assay: CDK12 nuclear protein level: immunofluorescence/high content analysis (CAL-120)
Format: cell-based
Conditions: CAL-120 cells, 24 h, immunofluorescence; 50% reduction of nuclear CDK12 staining intensity; median; read-out: CDK12 degradation IF, DC50- [mol/l] (median)
Endpoint: DC50 (nM)
Give the quantity in nM, number only.

Illustrative cases are given below, each with its answer.
Compound	Assay target	DC50 [nM]
Brc1cnn2c(NCc3nc4ccccc4[nH]3)nc(OCCN3CCCC3)nc12 [Example 404]	CDK12 (nuclear staining in CAL-120 cells) (Homo sapiens, UniProt Q9NYV4)	114
CCNc1nc(NCc2ncc(-c3ccccc3)[nH]2)n2ncc(C(C)C)c2n1 [Example 34]	CDK12 (nuclear staining in CAL-120 cells) (Homo sapiens, UniProt Q9NYV4)	12.7

Okay, now this compound:
Prompt line: Give the reported DC50 for Fc1cc2nc(CNc3nc(N4CC5CCC(C4)N5)nc4c(C5CC5)cnn34)[nH]c2cc1F [Example 325] (system: CDK12 (nuclear staining in CAL-120 cells) (Homo sapiens, UniProt Q9NYV4)).
Response line: 1.88

----------
Form field: DC50 (one value per entry).
Biological target: CYCLIN K (nuclear staining in CAL-120 cells) (Homo sapiens)
Construct: endogenous in cells; host or cells: CAL-120 human breast cancer cells (DSMZ ACC 459)
Sequence (O75909 whole entry): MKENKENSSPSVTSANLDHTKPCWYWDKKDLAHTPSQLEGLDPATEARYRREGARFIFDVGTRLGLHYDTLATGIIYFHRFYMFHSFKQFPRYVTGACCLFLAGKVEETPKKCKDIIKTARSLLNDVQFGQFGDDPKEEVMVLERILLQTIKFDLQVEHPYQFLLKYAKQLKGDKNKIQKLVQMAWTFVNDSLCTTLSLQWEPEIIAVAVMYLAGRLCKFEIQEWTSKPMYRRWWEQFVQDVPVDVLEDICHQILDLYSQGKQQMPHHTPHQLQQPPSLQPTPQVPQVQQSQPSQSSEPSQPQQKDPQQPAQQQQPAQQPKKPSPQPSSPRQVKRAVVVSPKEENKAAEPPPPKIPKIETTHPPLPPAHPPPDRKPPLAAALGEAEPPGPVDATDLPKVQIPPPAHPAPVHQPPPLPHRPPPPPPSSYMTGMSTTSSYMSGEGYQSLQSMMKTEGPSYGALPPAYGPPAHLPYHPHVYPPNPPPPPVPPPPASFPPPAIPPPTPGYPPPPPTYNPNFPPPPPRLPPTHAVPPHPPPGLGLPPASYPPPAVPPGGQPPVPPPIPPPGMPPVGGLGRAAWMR
Sequence (Q9NYV4 whole entry partner): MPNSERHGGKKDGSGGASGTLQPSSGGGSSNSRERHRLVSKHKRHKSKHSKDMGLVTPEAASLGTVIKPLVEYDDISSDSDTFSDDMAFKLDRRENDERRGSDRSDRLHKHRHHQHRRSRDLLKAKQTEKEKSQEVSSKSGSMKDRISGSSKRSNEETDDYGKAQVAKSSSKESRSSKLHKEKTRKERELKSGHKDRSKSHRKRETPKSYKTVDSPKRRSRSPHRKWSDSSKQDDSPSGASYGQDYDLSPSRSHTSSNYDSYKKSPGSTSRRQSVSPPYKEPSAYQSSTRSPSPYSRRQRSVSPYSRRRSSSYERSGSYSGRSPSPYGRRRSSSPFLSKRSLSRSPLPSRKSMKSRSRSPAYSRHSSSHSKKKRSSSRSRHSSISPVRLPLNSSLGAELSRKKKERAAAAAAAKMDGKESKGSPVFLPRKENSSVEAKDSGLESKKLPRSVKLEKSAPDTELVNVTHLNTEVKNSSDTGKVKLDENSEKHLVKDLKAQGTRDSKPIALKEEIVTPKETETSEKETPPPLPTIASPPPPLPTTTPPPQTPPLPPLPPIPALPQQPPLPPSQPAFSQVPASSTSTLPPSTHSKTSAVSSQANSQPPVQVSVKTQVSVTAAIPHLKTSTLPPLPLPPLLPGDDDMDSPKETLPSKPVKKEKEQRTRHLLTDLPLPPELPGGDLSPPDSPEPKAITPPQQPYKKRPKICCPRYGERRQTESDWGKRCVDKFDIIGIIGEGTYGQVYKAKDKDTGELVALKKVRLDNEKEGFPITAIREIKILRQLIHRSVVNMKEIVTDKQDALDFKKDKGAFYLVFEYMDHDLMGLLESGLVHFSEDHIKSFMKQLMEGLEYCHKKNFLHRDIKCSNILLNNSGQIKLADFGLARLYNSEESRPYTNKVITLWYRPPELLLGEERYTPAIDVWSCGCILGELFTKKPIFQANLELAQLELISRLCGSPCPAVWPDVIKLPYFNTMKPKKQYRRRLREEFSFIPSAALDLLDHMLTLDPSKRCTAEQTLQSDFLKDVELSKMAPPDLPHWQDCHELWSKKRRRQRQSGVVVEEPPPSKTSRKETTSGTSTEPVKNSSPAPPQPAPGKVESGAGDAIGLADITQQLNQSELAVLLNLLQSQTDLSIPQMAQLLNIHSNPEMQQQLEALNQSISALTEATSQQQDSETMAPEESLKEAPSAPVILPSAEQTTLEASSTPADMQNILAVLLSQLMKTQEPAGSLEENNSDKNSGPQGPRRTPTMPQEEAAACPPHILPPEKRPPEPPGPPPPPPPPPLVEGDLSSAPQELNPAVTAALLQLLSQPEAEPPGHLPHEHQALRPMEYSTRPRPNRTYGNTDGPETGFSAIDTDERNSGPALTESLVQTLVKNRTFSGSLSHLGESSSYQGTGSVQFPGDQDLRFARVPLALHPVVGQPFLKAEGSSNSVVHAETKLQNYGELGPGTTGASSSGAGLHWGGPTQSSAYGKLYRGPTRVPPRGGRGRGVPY
Test: CYCLIN K nuclear protein level: immunofluorescence high content analysis (CAL-120)
Format: cell-based
Conditions: 24 h, 50% reduction of nuclear CCNK staining intensity, median, read-out: CYCLIN K degradation IF, DC50-[mol/l] (median)
Just the number please, in nM, no unit attached.

Molecule	DC50, nM
Cc1cc2nc(CNc3nc(N(C)CC(C)(C)O)nc4c(C5CC5)cnn34)[nH]c2cc1C	1.36
c1ccc2[nH]c(CNc3nc(N4CCOCC4)nc4c(C5CC5)cnn34)nc2c1	0.381
c1ccc2[nH]c(CNc3nc(N4CCOCC4)nc4c(C5CCC5)cnn34)nc2c1	1.82
OC1CCN(c2nc(NCc3nc4ccccc4[nH]3)n3ncc(Br)c3n2)CC1	4.63
Fc1ccc2[nH]c(CNc3nc(N4CCOCC4)nc4c(CC(F)F)cnn34)nc2c1F.O=C(O)C(F)(F)F	0.545
FC(F)(F)Cc1cnn2c(NCc3nc4ccccc4[nH]3)nc(N3CCOCC3)nc12.O=CO	3.14
C[C@H]1CN(c2nc(NCc3nnc(-c4cccc(F)c4)[nH]3)n3ncc(Br)c3n2)CCN1C	0.713
CN(CC(C)(C)O)c1nc(NCc2nc3c(F)cccc3[nH]2)n2ncc(C3CC3)c2n1	2.55
CC1CN(C)CCN1c1nc(NCc2nc3ccccc3[nH]2)n2ncc(Br)c2n1 (single isomer, unassigned; enantiomer 1) [Example 260]	0.152
Fc1ccccc1-c1nnc(CNc2nc(N3CCOCC3)nc3c(Br)cnn23)[nH]1	8.7

Prompt line: // lookup DC50 for `FC(F)(F)c1cccc(-c2nnc(CNc3nc(N4CCOCC4)nc4c(Br)cnn34)[nH]2)c1`
Response line: 2.83

Prompt line: # repeat for `COC1CCN(c2nc(NCc3nnc(-c4ccccc4)[nH]3)n3ncc(Br)c3n2)CC1`
Response line: 8.06

Prompt line: # iterate: `FC(F)(F)c1cccc(-c2cnc(CNc3nc(N4CCOCC4)nc4c(Br)cnn34)[nH]2)c1`
Response line: 1.78

The measured values listed here are drawn from patent US20230117034A1.
